# target-or-test-system: EPHB3 (human)
# assay-notes: KINOMEscan competition binding
# setup-conditions: compound 1.0 µM
Each entry below carries its reported kinase still bound, per cent of control.
Enter your answer as a number in %; do not include the unit.

Some molecules with known kinase still bound, per cent of control results, for comparison:
| sample-smiles | measurement-unit | kinase still bound, per cent of control |
| --- | --- | --- |
| Cc1cc(NC(=O)c2cccc(NC(=O)/C=C/CN(C)C)c2)ccc1Nc1nccc(-c2cccnc2)n1 | % | 100 |
| CN(C)C/C=C/C(=O)Nc1cccc(C(=O)Nc2ccc(Nc3nccc(-c4cccnc4)n3)cc2)c1 | % | 96 |
| CN(C)C/C=C/C(=O)Nc1cccc(C(=O)Nc2ccc(Nc3nccc(/C(C#N)=C4\Nc5ccccc5S4)n3)cc2)c1 | % | 95 |

Return kinase still bound, per cent of control measured with EPHB3 (human) given this molecule: CN(C)C/C=C/C(=O)Nc1cccc(C(=O)Nc2ccc(Nc3nccc(-c4c(-c5ccccc5)nn5ccccc45)n3)cc2)c1
86

src = the kinase profiling compilation of Christmann-Franck et al. (2016)
